assay-info: Pharmacokinetics after repeated oral administration of 35 μg/kg of fluralaner in dogs after feeding
Assay type: in vivo, beagle dogs
details: beagle, dog, plasma, po, 35 ug/kg, oral 35 μg/kg Days 0-3, dogs, n=6; read-out: Cmax, Median
measurement-type: Cmax (ng/mL)

{"columns": ["compound", "measurement-type", "number"],
 "data": [
  ["Cc1cc(C2=NOC(c3cc(Cl)cc(Cl)c3)(C(F)(F)F)C2)ccc1C(=O)NCC(=O)NCC(F)(F)F (stereo not shown)", "Cmax", 87]
]}

====

assay-info: Pharmacokinetics after repeated oral administration of 250 μg/kg and 35 μg/kg of fluralaner in dogs after feeding
Format: in vivo, beagle dogs
details: beagle, dog, plasma, po, 24 h; oral 250/35/600 μg/kg regimen, dogs, n=6; read-out: fluralaner concentration levels, GeoMean
measurement-type: concentration at 24 h (ng/mL)

{"columns": ["molecule", "measurement-unit", "number"],
 "data": [
  ["Cc1cc(C2=NOC(c3cc(Cl)cc(Cl)c3)(C(F)(F)F)C2)ccc1C(=O)NCC(=O)NCC(F)(F)F (stereo not shown)", "ng/mL", 145]
]}
